biological target: Signal transducer and activator of transcription 3 (Homo sapiens); assay: Inhibition of Stat3 binding to DNA in human U266 whole cell lysate at 100 ug/ml by ELISA; assay type: cell-free; conditions: U-266
Sequence (P40763 whole entry): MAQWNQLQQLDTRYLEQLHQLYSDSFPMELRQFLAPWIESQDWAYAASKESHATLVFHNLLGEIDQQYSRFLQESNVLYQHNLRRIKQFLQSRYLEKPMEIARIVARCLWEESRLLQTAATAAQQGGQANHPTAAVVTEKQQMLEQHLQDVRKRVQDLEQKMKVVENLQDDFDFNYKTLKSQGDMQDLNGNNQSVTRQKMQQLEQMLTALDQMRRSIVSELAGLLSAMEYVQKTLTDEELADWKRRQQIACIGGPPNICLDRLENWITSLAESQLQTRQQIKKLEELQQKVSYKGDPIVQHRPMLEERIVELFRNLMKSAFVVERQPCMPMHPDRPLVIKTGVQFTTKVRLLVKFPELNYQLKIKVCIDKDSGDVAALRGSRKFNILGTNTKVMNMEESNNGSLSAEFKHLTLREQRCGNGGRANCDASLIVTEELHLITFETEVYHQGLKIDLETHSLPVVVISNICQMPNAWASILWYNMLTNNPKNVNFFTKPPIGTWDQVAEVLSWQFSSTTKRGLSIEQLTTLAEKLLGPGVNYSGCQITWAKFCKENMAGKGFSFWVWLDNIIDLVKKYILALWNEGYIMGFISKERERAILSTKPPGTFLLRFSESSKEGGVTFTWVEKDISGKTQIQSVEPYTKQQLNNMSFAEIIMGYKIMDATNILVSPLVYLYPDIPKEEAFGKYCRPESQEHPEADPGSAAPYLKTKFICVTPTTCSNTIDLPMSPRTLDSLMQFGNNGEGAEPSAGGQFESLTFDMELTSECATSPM
readout_name: inhibition (%)

Answered cases to consult:
molecule_smiles: Oc1cccc(-c2nc3ccccc3s2)c1O
readout_name: inhibition
value: 56
//
molecule_smiles: Oc1ccc(CC/N=C/c2c(O)ccc3ccccc23)cc1O
readout_name: inhibition
value: 50
//
molecule_smiles: Oc1ccc(CC/N=C/c2cccc(O)c2O)cc1O
readout_name: inhibition
value: 51

a. O=C(Cc1ccc2c(c1)OCO2)NCCc1ccc(O)c(O)c1
b. O=C(O)c1ccccc1/N=C\c1ccc(O)c(O)c1
Exercise: Name the one with the greater inhibition value, either a or b as given. Please indicate the selected item by its label.
Solution: a
(a: 40%, b: 8%)

====

biological target: UniProtKB P40763; assay: Inhibition of Stat3 binding to DNA in human U266 whole cell lysate by ELISA
readout_name: IC50 (µM)

1. Cc1oc(C)c2c(=O)cc(-c3ccc(O)c(O)c3)cc(O)c12
2. O=C(Cc1ccc2c(c1)OCO2)NCCc1ccc(O)c(O)c1
Exercise: Compare 1 and 2 by numeric IC50 and name the larger one. In your reply, give the label of the chosen option.
Solution: 2
(2: 357 µM, 1: 106 µM)
